- Experimental target: UniProt:P10408
Parameter: IC50 (µM)
Kindly provide the numeric value in µM only, without the unit symbol.

Consider the compound O.O=C([O-])c1ccccc1-c1c2cc(I)c(=O)c(I)c-2oc2c(I)c([O-])c(I)cc12.[Na+].[Na+] [EB, Erythrosin B] . State its measured IC50.
12

---

- Experimental target: EcSecA translocation ATPase (Escherichia coli)
- Sequence (P10408 whole entry): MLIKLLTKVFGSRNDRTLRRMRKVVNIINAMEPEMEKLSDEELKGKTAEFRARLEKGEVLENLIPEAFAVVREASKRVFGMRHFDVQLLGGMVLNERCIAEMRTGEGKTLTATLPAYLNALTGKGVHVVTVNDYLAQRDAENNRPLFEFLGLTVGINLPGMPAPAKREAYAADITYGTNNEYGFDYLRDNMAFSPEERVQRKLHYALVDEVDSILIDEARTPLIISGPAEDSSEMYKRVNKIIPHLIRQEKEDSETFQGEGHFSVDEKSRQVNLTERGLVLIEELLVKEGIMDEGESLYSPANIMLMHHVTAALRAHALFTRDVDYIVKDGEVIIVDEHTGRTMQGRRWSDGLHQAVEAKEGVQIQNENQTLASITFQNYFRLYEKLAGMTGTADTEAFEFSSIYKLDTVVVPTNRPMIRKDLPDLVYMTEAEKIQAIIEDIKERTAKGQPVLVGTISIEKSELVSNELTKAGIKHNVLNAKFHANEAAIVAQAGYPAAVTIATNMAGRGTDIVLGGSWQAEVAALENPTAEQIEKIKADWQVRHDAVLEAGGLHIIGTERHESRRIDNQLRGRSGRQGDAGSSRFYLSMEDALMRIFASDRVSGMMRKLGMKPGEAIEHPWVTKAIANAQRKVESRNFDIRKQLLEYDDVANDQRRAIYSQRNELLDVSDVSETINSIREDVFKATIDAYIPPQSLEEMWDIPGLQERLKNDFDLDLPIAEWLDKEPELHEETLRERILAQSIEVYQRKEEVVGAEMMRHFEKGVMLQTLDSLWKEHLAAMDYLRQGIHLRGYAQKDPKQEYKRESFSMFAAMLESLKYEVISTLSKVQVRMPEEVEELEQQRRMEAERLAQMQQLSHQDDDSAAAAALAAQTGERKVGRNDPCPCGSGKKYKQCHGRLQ
- Assay notes: Translocation ATPase assay of SecA with membrane and proOmpA
- Type: biochemical
- Settings: read-out: IC50, EcSecA translocation ATPase
Parameter: pIC50
Please treat pIC50 as minus the base-10 logarithm of the molar concentration.

Consider the compound `O.O=C([O-])c1ccccc1-c1c2cc(I)c(=O)c(I)c-2oc2c(I)c([O-])c(I)cc12.[Na+].[Na+]` . State its measured pIC50.
5.00

---

- Experimental target: UniProt:P28366
- Sequence (P28366 whole entry): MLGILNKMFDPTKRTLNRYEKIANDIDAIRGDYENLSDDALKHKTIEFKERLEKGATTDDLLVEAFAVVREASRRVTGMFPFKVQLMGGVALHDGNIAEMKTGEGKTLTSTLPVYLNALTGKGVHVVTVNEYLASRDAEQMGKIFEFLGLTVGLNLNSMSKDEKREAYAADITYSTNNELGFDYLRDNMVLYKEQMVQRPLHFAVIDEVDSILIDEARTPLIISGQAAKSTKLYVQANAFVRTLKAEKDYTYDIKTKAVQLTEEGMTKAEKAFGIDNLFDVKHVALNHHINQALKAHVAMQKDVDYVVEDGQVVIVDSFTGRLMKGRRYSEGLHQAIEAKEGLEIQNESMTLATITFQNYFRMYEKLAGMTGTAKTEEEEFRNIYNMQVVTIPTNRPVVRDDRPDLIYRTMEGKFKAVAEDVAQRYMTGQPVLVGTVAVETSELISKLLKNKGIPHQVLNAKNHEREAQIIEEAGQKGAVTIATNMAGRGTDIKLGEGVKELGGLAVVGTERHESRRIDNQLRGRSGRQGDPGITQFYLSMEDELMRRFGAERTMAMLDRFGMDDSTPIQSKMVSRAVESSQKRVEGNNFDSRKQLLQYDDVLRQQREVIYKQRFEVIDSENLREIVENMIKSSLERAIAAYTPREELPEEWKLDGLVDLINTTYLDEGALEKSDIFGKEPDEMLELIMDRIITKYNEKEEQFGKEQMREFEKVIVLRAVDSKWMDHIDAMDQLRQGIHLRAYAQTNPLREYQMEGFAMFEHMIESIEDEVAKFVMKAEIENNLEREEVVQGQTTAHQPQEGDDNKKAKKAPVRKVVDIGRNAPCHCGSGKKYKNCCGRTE
- Assay notes: Intrinsic ATPase assay of full-length BsSecA
- Type: biochemical
- Settings: read-out: IC50, BsSecA intrinsic ATPase; full-length B. subtilis SecA
Quick reference for IC50 among some compounds
Kindly provide the numeric value in µM only, without the unit symbol.

Consider the compound O.O=C([O-])c1ccccc1-c1c2cc(I)c(=O)c(I)c-2oc2c(I)c([O-])c(I)cc12.[Na+].[Na+] [EB, Erythrosin B] . State its measured IC50.
70

Turning to the following compound.
Consider the compound O=C1OC2(c3cc(I)c(O)c(I)c3Oc3c2cc(I)c(O)c3I)c2c(Cl)c(Cl)c(Cl)c(Cl)c21 [RB, Rose Bengal] . State its measured IC50.
7

---

- Experimental target: EcN68 SecA ATPase (Escherichia coli)
- Sequence (P10408 1-610): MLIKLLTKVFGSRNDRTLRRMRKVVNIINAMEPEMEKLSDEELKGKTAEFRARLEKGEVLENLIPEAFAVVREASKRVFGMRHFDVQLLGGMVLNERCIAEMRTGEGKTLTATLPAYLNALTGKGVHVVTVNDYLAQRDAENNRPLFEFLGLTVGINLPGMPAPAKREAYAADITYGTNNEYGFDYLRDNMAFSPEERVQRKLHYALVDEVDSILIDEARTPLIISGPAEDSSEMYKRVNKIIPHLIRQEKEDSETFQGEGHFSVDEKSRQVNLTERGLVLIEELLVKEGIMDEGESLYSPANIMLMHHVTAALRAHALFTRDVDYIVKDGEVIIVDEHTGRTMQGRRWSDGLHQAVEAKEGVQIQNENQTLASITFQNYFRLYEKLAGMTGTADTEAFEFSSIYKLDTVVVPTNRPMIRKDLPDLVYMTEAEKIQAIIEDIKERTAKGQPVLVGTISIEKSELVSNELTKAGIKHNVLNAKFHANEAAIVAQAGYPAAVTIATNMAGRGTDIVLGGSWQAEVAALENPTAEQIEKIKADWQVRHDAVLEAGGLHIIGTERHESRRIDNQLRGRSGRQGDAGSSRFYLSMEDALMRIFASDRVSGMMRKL
Parameter: pIC50
Please treat pIC50 as minus the base-10 logarithm of the molar concentration.

Consider the compound `O=C1OC2(c3ccccc31)c1cc(Br)c(O)c(Br)c1Oc1c2cc(Br)c(O)c1Br` . State its measured pIC50.
4.60
